- testName: FRG1 expression reporter modulators in myotubes – cell-based, C2C12 myotubes, firefly/Renilla luciferase, luminescence, FRG1 inhibition for FSHD, primary screen (AID 1084)
- conditionParameters: FRG1 promoter luciferase; higher = more signal, called active from +8 up or from −8 down unless noted

{"compound": "C[C@@H]1OC=C2[C@@H](O)[C@H]3O[C@H]3C(=O)[C@]23[C@H]1[C@H]1C2=C([C@@H](O)[C@H]4O[C@H]4C2=O)[C@@H]3O[C@@H]1C", "z-score": -0.165}
{"compound": "CCCc1cc2c(n1Cc1cccc(Cl)c1)C(C)C1CN(C(=O)c3ccccc3)C(C)(C(=O)OC)C21 (stereo unspecified)", "z-score": 0.703}
{"compound": "COC(=O)NCC=Cc1nc(CCC=CC(=O)O[C@H]2CC3CC(=O)O[C@@H](C=CCC(C)C)C[C@@H]4CC[C@H](C)[C@@H](C[C@@H](OC)C[C@H](C2)O3)O4)co1", "z-score": 0.524}
{"compound": "COC(=O)[C@H]1[C@@H](O)[C@@]2(O)c3c(OC)cc(OC)cc3O[C@@]2(c2ccc(OC)cc2)[C@@H]1c1ccccc1", "z-score": 0.128}
{"compound": "CCCc1cc2c(n1CCO)C(C)C1CN(C(=O)c3ccccc3)C(C)(C(=O)OC)C21 (stereo unspecified)", "z-score": 2.02}
{"compound": "COC(=O)[C@@]1(Cc2ccccc2)[C@H]2c3cc(C(=O)N(C)C)n(C)c3C[C@H]2CN1C(=O)c1ccccc1", "z-score": 1.51}
{"compound": "CN1CCC(c2ccc(CO)cc2)=CC1c1cccs1 (stereo unspecified)", "z-score": 1.68}
{"compound": "COC(=O)C1(C)C=C2C(=C(C)C(=O)C2C)CN1 (stereo unspecified)", "z-score": 3.71}
{"compound": "CN1CCC(c2ccc(CO)cc2)=CC1C1CC1 (stereo unspecified)", "z-score": 0.666}
{"compound": "CN1CCc2nc(CO)c(CO)cc2C1", "z-score": 0.294}
{"compound": "CCOC(=O)[C@H]1CC=C2C(=O)Oc3ccccc3[C@@H]21", "z-score": 0.48}
{"compound": "C=C(CC1(CNP(=O)(c2ccccc2)c2ccccc2)CC1)c1ccccc1", "z-score": -3.35}
{"compound": "COC(=O)[C@H]1C(=O)c2ccccc2O[C@@](C(=O)OC)(c2ccccc2)[C@@H]1c1ccccc1", "z-score": -0.748}
{"compound": "C[C@H]1O[C@H]2C3=C(C(=O)[C@@H]4O[C@@H]4[C@@H]3O)[C@@H]1[C@@H]1[C@@H](C)OC=C3[C@@H](O)[C@H]4O[C@H]4C(=O)[C@]312", "z-score": -2.19}
{"compound": "COc1cc2c(cc1O)C=[N+](C)CC2", "z-score": -1.13}
{"compound": "CCOC(=O)[C@H]1CC=C2C(=O)Oc3ccc(Br)cc3[C@@H]21", "z-score": -0.818}
